Test system: Hep3B hepatocellular carcinoma cell line
PROCEDURE SUMMARY: MTS cell viability assay (NCI-60 methodology), GI50/LC50, Hep3B
Type: cell-based
CONDITION DESCRIPTION: Homo sapiens, 48 h, Hep3B cells, 2 days incubation with compound
Sorting guide: entries reporting GI50 beneath 600 nM go in the true pile, the rest go in the false pile.

Task: State whether 600 nM exceeds GI50 recorded for `CCCOc1ccc(-c2nc(NC(=O)c3ccc([N+](=O)[O-])s3)sc2-c2ccc(F)cc2)cc1` .
Output: false

Task: Is GI50 strictly under 600 nM for the entry `CCCOc1ccc(-c2nc(NC(=O)c3ccc([N+](=O)[O-])s3)sc2Oc2ccc(C(F)(F)F)cc2Cl)cc1` ?
Output: true

Task: Given `CCOc1cc(OCC)c(-c2nnc(NC(=O)Cc3ccc4nc(N)sc4c3)s2)cn1` , is recorded GI50 strictly lower than 600 nM?
Output: true

Task: hey, is GI50 for `O=C(Nc1nc(-c2ccc(C(F)(F)F)cc2)c(Oc2ccccc2)s1)c1ccc([N+](=O)[O-])s1` lower than 600 nM or not?
Output: false

Task: Check if GI50 falls below 600 nM for `CCCCCOc1ccc(-c2nc(NC(=O)c3ccc([N+](=O)[O-])s3)sc2Oc2ccccc2)cc1` .
Output: true

Task: I wonder whether `CC(C)Oc1ccccc1-c1nnc(NC(=O)Cc2ccc3nc(N)sc3c2)s1` has GI50 below 600 nM. Can you tell?
Output: true

Task: Please state whether GI50 is below 600 nM for `CCOc1ccc(-c2nc(NC(=O)c3ccc([N+](=O)[O-])s3)sc2Oc2cccc(C(F)(F)F)c2)cc1`
Output: false

Task: I wonder whether `O=C(Nc1nc(-c2ccc(OC(F)(F)F)cc2)c(Oc2ccccc2F)s1)c1ccc([N+](=O)[O-])s1` has GI50 below 600 nM. Can you tell?
Output: false

Task: Hello, is GI50 of the following compound strictly smaller than 600 nM? `CCOc1ccc(-c2nnc(NC(=O)Cc3ccc4nc(N)sc4c3)s2)c(OCCN(C)C)c1`
Output: true

Task: Does this compound meet the criterion GI50 < 600 nM? `CC(C)(C)c1ccc(-c2nc(NC(=O)c3ccc([N+](=O)[O-])s3)sc2-c2ccc(F)cc2)cc1`
Output: false

Task: Determine if `CCOCOc1cc(OCC)ccc1-c1nnc(NC(=O)Cc2ccc3nc(N)sc3c2)s1` shows GI50 strictly lower than 600 nM.
Output: true

Task: is_below(GI50, 600 nM) for `CCCCOc1ccc(-c2nc(NC(=O)c3ccc([N+](=O)[O-])s3)sc2Oc2ccccc2)cc1` ?
Output: true

Task: Strictly below 600 nM: is that where GI50 of `CC(C)(C)c1ccc(-c2nc(NC(=O)c3ccc([N+](=O)[O-])s3)sc2-c2ccccc2)cc1` sits?
Output: false

Task: Consider `CCC(C)(C)c1ccc(-c2nc(NC(=O)c3ccc([N+](=O)[O-])s3)sc2-c2ccc(F)cc2)cc1` . Does its GI50 lie strictly below 600 nM?
Output: true

Task: Does the reported GI50 of the following compound sit strictly below 600 nM? `CCCOc1ccc(-c2nc(NC(=O)c3ccc([N+](=O)[O-])s3)sc2Oc2cccc(F)c2)cc1`
Output: false

----------
System: SW480 colon adenocarcinoma cell line
PROCEDURE SUMMARY: MTS cell viability assay (NCI-60 methodology), GI50/LC50, SW480
Assay type: cell-based
CONDITION DESCRIPTION: Homo sapiens, 48 h, SW480 cells, 2 days incubation with compound
Assign labels as follows, please: satisfied for GI50 below 1000 nM; not satisfied for GI50 equal to or exceeding 1000 nM.

Task: Below 1000 nM on GI50? Entry `CCCOc1ccc(-c2nnc(NC(=O)Cc3ccc4nc(N)sc4c3)s2)cc1`
Output: not satisfied

Task: Please let me know if `CCCOc1ccc(-c2nc(NC(=O)c3ccc([N+](=O)[O-])s3)sc2-c2ccc(F)cc2)cc1` shows GI50 below 1000 nM.
Output: not satisfied

Task: # check: GI50 < 1000 nM for `CC(C)(C)c1ccc(-c2nc(NC(=O)c3ccc([N+](=O)[O-])s3)sc2-c2ccc(Br)cc2)cc1`
Output: satisfied

Task: Please indicate whether the reported GI50 of `O=C(Nc1nc(-c2ccc(Br)cc2)c(Oc2cccc(C(F)(F)F)c2)s1)c1ccc([N+](=O)[O-])s1` is strictly below 1000 nM.
Output: not satisfied

Task: # strict comparison: is reported GI50 < 1000 nM? input = `CCCCOc1ccc(-c2nc(NC(=O)c3ccc([N+](=O)[O-])s3)sc2-c2ccc(F)cc2)cc1`
Output: not satisfied

Task: Does the reported GI50 of the following compound sit strictly below 1000 nM? `Nc1nc2ccc(CC(=O)Nc3nc(-c4ccc(Br)cc4)c(-c4ccc(Br)cc4)s3)cc2s1`
Output: not satisfied

Task: Bench note: check whether `CCOc1cnccc1-c1nnc(NC(=O)Cc2ccc3nc(N)sc3c2)s1` shows GI50 below 1000 nM
Output: satisfied

Task: Say whether its GI50 is strictly beneath 1000 nM. Entry: `O=C(Nc1nc(-c2ccc(Br)cc2)c(Oc2ccc(C(F)(F)F)cc2)s1)c1ccc([N+](=O)[O-])s1`
Output: satisfied

Task: Answer whether the compound `CCCCOc1ccccc1-c1nnc(NC(=O)Cc2ccc3nc(N)sc3c2)s1` has GI50 strictly less than 1000 nM
Output: not satisfied

Task: GI50 under 1000 nM? Item: `O=C(Nc1nc(-c2ccc(F)cc2)c(Oc2ccccc2OC(F)(F)F)s1)c1ccc([N+](=O)[O-])s1`
Output: satisfied

Task: Dear colleague, could you confirm whether GI50 of `CCCOc1ccc(-c2nc(NC(=O)c3ccc([N+](=O)[O-])s3)sc2Oc2ccc(C(F)(F)F)cc2)cc1` falls below 1000 nM? Thanks.
Output: not satisfied

Task: Problem: For the compound `CCCCOc1cc(OCC)ccc1-c1nnc(NC(=O)Cc2ccc3nc(N)sc3c2)s1` , is GI50 under 1000 nM?
Output: satisfied

Task: For this compound, is GI50 lower than 1000 nM? `CCOc1cc(OCC)c(-c2nnc(N(C)C(=O)Cc3ccc4nc(N)sc4c3)s2)cn1`
Output: not satisfied

Task: Does this compound meet the criterion GI50 < 1000 nM? `CCCOc1ccc(-c2nc(NC(=O)c3ccc([N+](=O)[O-])s3)sc2Oc2cccc(C(F)(F)F)c2)cc1`
Output: not satisfied

Task: is_below(GI50, 1000 nM) for `CCOc1ccc(-c2nnc(NC(=O)Cc3ccc4nc(N)sc4c3)s2)c(OCCN(C)C)c1` ?
Output: not satisfied

Origin of values: patent US11174253B2
